# assay text: NCI Yeast Anticancer Drug Screen. Data for the sgs1 mgt1 strain (AID 161)
# assay conditions: S. cerevisiae sgs1 mgt1 strain, at 50.0 µM, active compounds read high
About 79,000 compounds went through this panel and 15% of them were active in at least one assay; those are over-represented in the sample as a whole.
Record Y whenever growth inhibition is at 90% or higher; record N when lower.

# compound, label class
data = [
    ("O=[N+]([O-])/C(Cl)=C(/C(Cl)=C(Cl)Cl)N1CCCCC1", "N"),
    ("CC(=O)N(C1=C(Cl)C(=O)c2ccccc2C1=O)c1ccc(F)cc1", "Y"),
    ("NNc1cc(Cl)ccc1Cl", "Y"),
    ("O=C1C(c2ccccc2)=[N+]([O-])c2cc([N+](=O)[O-])c(/C(Cl)=C/c3ccccc3)cc21", "N"),
    ("O=[N+]([O-])c1ccc2c(c1)/C(=N/O)c1ccccc1-2", "N"),
    ("Clc1nc2ccccc2nc1N1CCCCCC1", "N"),
    ("N#CC(C(=O)CCCC(=O)Nc1ccc(Cl)cc1)c1ccccc1Cl (stereo not given)", "Y"),
    ("COc1ccc(-c2c(C#N)cc(OC)c(OC)c2OC)c(C=O)c1", "N"),
    ("CN(Cc1cnc2nc(N)nc(N)c2n1)c1ccc(C(=O)NC(CCC(=O)O)C(=O)O)c(Cl)c1Cl (stereo not given)", "N"),
    ("COc1ccc(/C(Cl)=C(\\C=O)c2ccc(Cl)c(Cl)c2)cc1", "Y"),
    ("CCCCCCCCCCCC(C)N (stereo not given)", "Y"),
    ("CC1(C)[C@@H]2CC[C@]1(C)[C@@H](OC(=O)CSC#N)C2", "Y"),
    ("CCOC(=O)C(NC(C)=O)[CH](c1ccc(OC)cc1)[Sn]([c]1ccccc1)([c]1ccccc1)[c]1ccccc1 (stereo not given)", "N"),
    ("CC1C2CC(C(S(=O)(=O)N3CCOCC3)/C2=N\\O)C1(C)C (stereo not given)", "N"),
    ("COC(=O)/C=C(\\C)Nc1ccc(Cc2ccc(Br)cc2)cc1", "Y"),
    ("NC(=S)Nc1cccc(C(F)(F)F)c1", "Y"),
    ("O=C1CCC(Cc2ccc(Br)cc2)C(=O)N1 (stereo not given)", "Y"),
    ("Nc1ccccc1[S][Sn]([c]1ccccc1)([c]1ccccc1)[c]1ccccc1", "Y"),
    ("CSc1nnc(CCC(=O)Nc2c(C)cccc2C(C)(C)C)o1", "N"),
    ("Cc1cc([N+](=O)[O-])c2nnnn2c1", "N"),
    ("C/C(=N\\NC(=S)NNC(=S)N1CCCc2ccccc21)c1ccccn1", "Y"),
    ("COc1ccc2nc3cccc([N+](=O)[O-])c3c(NCCN(C)C)c2c1", "N"),
    ("O=C1C(=O)c2cc(Cl)ccc2-c2ccc(Cl)cc21", "Y"),
]
